Test Target: NPY Y2 receptor (Homo sapiens, UniProt P49146)
Sequence (P49146 whole entry): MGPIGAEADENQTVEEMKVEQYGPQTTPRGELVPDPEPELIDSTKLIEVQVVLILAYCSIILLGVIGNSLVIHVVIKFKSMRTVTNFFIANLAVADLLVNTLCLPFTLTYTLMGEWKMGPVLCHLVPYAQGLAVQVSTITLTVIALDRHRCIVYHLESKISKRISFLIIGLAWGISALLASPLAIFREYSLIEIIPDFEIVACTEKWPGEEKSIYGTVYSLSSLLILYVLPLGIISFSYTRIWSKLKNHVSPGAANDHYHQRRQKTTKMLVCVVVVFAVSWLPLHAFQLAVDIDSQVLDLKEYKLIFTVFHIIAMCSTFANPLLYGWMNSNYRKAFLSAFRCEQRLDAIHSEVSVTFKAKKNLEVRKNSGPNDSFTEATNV
Assay Details: Neuropeptide Y2 radioligand binding assay ([125I]PYY, KAN-Ts membranes)
Condition Set: KAN-Ts membranes endogenously expressing Y2, [125I]PYY (80 pM), 1 h at rt
# key: entry, value: log10 IC50
Remember, log10 of IC50, in nM.

Solved cases (5 shown):
CCC(CC)C(=O)Nc1ccc(N2CCN(C(c3ccccc3)C3CC3)CC2)c(F)c1 (centres unmarked) ... 1.89
CCC(CC)C(=O)Nc1ccc(N2CCN(C(c3ccccc3)c3noc(-c4cccnc4)n3)CC2)c(F)c1 (centres unmarked) ... 1.40
CCC(CC)C(=O)Nc1ccc(N2CCN(C(c3ccc(Cl)cc3)c3ncco3)CC2)c(F)c1 (centres unmarked) ... 2.20
CCCC(=O)Nc1ccc(N2CCN(C(c3ccccc3)c3ncco3)CC2)c(C#N)c1 (centres unmarked) ... 2.26
CCc1noc(C(c2ccccc2)N2CCN(c3ccc(NC(=O)C(CC)CC)cc3F)CC2)n1 (centres unmarked) ... 1.43

Problem: Report log10 IC50 from NPY Y2 receptor (Homo sapiens, UniProt P49146) testing of N#Cc1cc(NC(=O)[C@@H]2CCOC2)ccc1N1CCN(C(c2ccccc2)c2ncco2)CC1 (some centres unmarked)
Result: 1.58

Problem: Report log10 IC50 from NPY Y2 receptor (Homo sapiens, UniProt P49146) testing of O=C(Nc1ccc(N2CCN(C(c3ccccc3)c3ccccc3)CC2)c(F)c1)[C@H]1CCOC1 (stereo in doubt)
Result: 1.90

Problem: Report log10 IC50 from NPY Y2 receptor (Homo sapiens, UniProt P49146) testing of O=C(Nc1ccc(N2CCN(C(c3ccccc3)c3ncco3)CC2)c(F)c1)[C@@H]1CCOC1 (stereo in doubt)
Result: 2.43

Problem: Report log10 IC50 from NPY Y2 receptor (Homo sapiens, UniProt P49146) testing of CCC(CC)C(=O)Nc1ccc(N2CCN(C(c3ccc(OC)cc3)c3ncco3)CC2)c(F)c1 (centres unmarked)
Result: 2.51

Problem: Report log10 IC50 from NPY Y2 receptor (Homo sapiens, UniProt P49146) testing of CC(CC(F)(F)F)C(=O)Nc1ccc(N2CCN(C(c3ccccc3)c3ncco3)CC2)c(C#N)c1 (centres unmarked)
Result: 1.46

Problem: Report log10 IC50 from NPY Y2 receptor (Homo sapiens, UniProt P49146) testing of CCC(CC)C(=O)Nc1ccc(N2CCN(C(c3ccccc3)c3nc4ccccc4s3)CC2)c(C#N)c1 (centres unmarked)
Result: 1.59

Problem: Report log10 IC50 from NPY Y2 receptor (Homo sapiens, UniProt P49146) testing of CCC(CC)C(=O)Nc1ccc(N2CCN(C(c3ccc(OC)cc3)C3CC3)CC2)c(F)c1 (centres unmarked)
Result: 2.46

Problem: Report log10 IC50 from NPY Y2 receptor (Homo sapiens, UniProt P49146) testing of CC(C)C(=O)Nc1ccc(N2CCN(C(c3ccccc3)c3ncco3)CC2)c(C#N)c1 (centres unmarked)
Result: 1.73

Problem: Report log10 IC50 from NPY Y2 receptor (Homo sapiens, UniProt P49146) testing of CCC(CC)C(=O)Nc1ccc(N2CCN(C(c3ccccc3)c3ncco3)CC2)c(F)c1 (centres unmarked) [Compound 20]
Result: 1.60

Problem: Report log10 IC50 from NPY Y2 receptor (Homo sapiens, UniProt P49146) testing of CCC(CC)C(=O)Nc1ccc(N2CCN(C(c3ccc(OC)cc3)c3ncco3)CC2)c(C#N)c1 (centres unmarked)
Result: 1.46

Problem: Report log10 IC50 from NPY Y2 receptor (Homo sapiens, UniProt P49146) testing of CCC(CC)C(=O)Nc1ccc(N2CCN(C(c3cccc(F)c3)c3ncco3)CC2)c(F)c1 (centres unmarked)
Result: 1.65
